From: patent US10961202B2

- Tested on: MBNL1 exon 5 inclusion in DM1 myotubes
- Assay Remarks: Myotube splicing rescue assay (MBNL1 exon 5 inclusion)
- Format: cell-based, human
- Details: 5 μM, 48-hour incubation
Assay Metric: MBNL1 % splicing rescue at 5 μM (%)

INSERT INTO measurements (compound, value_measured) VALUES
  ('C[C@@H](NC(=O)CNCCCn1cc(CCCCN(C)CCNC(=O)c2ccc(-c3nc4cc(-c5ccc6[nH]c(-c7ccc(C(=O)NCCN(C)C)cc7)nc6c5)ccc4[nH]3)cc2)nn1)C(=O)N[C@H](C)C(=O)N[C@H](C)C(=O)N[C@H](C)C(=O)N(CCCn1cc(CCCCN(C)CCNC(=O)c2ccc(-c3nc4cc(-c5ccc6[nH]c(-c7ccc(C(=O)NCCN(C)C)cc7)nc6c5)ccc4[nH]3)cc2)nn1)CC(N)=O [Compound 460]', '−21.0'),
  ('CC(=O)NCCCn1cc(CCCCN(C)CCNC(=O)c2ccc(-c3nc4cc(-c5ccc6[nH]c(-c7ccc(C(=O)NCCN(C)C)cc7)nc6c5)ccc4[nH]3)cc2)nn1 [Compound 402]', '−33.8'),
  ('CN(C)CCCOc1ccc(-c2nc3cc(-c4ccc5[nH]c(-c6ccc(C(=O)NCCCn7cc(COCCOCCN(C)C(=O)c8ccc(-c9nc%10cc(-c%11ccc%12[nH]c(-c%13ccc(C(=O)NCCN(C)C)cc%13)nc%12c%11)ccc%10[nH]9)cc8)nn7)cc6)nc5c4)ccc3[nH]2)cc1 [Compound 458]', '−14.7'),
  ('CN(C)CCCOc1ccc(-c2nc3cc(-c4ccc5[nH]c(-c6ccc(C(=O)NCCCn7cc(COCCOCCOCCOCCN(C)C(=O)c8ccc(-c9nc%10cc(-c%11ccc%12[nH]c(-c%13ccc(C(=O)NCCN(C)C)cc%13)nc%12c%11)ccc%10[nH]9)cc8)nn7)cc6)nc5c4)ccc3[nH]2)cc1 [Compound 459]', '−2.6'),
  ('C#CCCCCN(C)CCNC(=O)c1ccc(-c2nc3cc(-c4ccc5[nH]c(-c6ccc(C(=O)NCCN(C)C)cc6)nc5c4)ccc3[nH]2)cc1 [Compound 401]', '−11.3');
